target: B2 receptor; experiment: cell-based or functional assay
Sequence (P30411 whole entry): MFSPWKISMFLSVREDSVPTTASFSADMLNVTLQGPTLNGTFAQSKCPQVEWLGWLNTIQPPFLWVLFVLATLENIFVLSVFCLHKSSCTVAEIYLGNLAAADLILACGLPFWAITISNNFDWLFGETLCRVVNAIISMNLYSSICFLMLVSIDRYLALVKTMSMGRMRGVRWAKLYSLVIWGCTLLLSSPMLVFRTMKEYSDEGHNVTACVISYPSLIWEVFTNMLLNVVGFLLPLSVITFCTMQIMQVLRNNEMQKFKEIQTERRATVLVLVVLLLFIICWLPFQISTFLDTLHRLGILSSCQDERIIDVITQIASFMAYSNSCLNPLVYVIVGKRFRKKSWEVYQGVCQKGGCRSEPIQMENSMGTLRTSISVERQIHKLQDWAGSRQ
Where no end group is shown, it is not given here. [ ]: non-standard residue; d: D form. 2Thi = N[C@@H](Cc1cccs1)C(=O)O
readout: Relative affinity activity (B2-NFAT-CHO-K1 luciferase reporter gene assay, from EC50) (%)

binder	recorded.value
CRRPPG[2Thi]SPFR [Lys-BKm13]	115
CRPPG[2Thi]SPFR [Lys-BKm15]	125
